Origin of values: patent US20210403591A1

Target: T1, mTfR-1 E229A on Expi293 cells (mouse, UniProt Q62351 1-763)
T1 construct: whole, on cells
T1 sequence (Q62351 whole entry E229A): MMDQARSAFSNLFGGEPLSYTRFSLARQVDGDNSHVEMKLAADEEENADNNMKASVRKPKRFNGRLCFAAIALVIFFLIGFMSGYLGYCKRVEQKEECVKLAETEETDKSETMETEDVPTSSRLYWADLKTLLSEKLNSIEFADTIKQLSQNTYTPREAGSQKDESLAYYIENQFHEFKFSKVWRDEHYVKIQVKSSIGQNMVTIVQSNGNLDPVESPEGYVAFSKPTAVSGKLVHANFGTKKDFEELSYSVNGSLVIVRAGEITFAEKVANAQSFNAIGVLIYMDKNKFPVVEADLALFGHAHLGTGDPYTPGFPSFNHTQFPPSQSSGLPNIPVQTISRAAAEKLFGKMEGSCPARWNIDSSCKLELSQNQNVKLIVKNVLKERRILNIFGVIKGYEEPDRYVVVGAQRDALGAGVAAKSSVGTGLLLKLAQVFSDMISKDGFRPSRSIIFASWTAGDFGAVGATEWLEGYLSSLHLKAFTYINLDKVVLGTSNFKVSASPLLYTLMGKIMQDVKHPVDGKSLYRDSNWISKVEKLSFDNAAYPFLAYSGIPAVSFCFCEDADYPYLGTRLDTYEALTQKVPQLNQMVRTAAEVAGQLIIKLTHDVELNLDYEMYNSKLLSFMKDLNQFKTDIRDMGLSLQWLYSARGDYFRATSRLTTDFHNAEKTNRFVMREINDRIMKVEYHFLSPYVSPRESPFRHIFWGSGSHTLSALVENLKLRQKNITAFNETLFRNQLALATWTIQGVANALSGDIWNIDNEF
Assay: FACS, transfected Expi293 cells
Procedure: Transfected Expi293 cells were harvested and 2×10⁵ cells were transferred into V-bottom 96-well plate for staining. […] The percentage of double-positive cells that stained with mTf and the tested antibody was determined on a CytoFlex cytometer (Beckman Coulter). […]
PARAMETER_MEASURED: % double-positive cells vs WT
Write the numeric value and follow it with the unit.

// known answers, use as guide
| BINDER | % double-positive cells vs WT |
| --- | --- |
| 8D3 antibody (anti-mouse TfR-1 control; 8D3-hFc formatted antibody) (antibody, V domains shown) VH: EVQLVESGGGLVQPGNSLTLSCVASGFTFSNYGMHWIRQAPKKGLEWIAMIYYDSSKMNYADTVKGRFTISRDNSKNTLYLEMNSLRSEDTAMYYCAVPTSHYVVDVWGQGVSVTVSS VL: DIQMTQSPASLSASLEEIVTITCQASQDIGNWLAWYQQKPGKSPQLLIYGATSLADGVPSRFSGSRSGTQFSLKISRVQVEDIGIYYCLQAYNTPWTFGGGTKLELK | 68% |
| Clone C variant 18 VNAR-hFc (Fc fusion, not shown: a dimerising Fc or GST, also called Clone C v18; Clone C var; 18) ARVDQTPQTITKETGESLTINCVLRDSNCALSSTYWYRKKSGSTNEENISKGGRYVETVNSGSKSFSLRINDLTVEDSGTYRCNVVQYPQYPNYFWCDVYGDGTAVTVN | 51% |
| Clone C variant 13 VNAR-hFc (Fc fusion, not shown: a dimerising Fc or GST, also called Clone C v13; Clone C var; 13) ARVDQTPQTITKETGESLTINCVLRDSNCALSSTYWYRKKSGSTNEENISKGGRYVETVNSGSKSFSLRINDLTVEDSGTYRCNVVQYPQQDNYFWCDVYGDGTAVTVN | 43% |

Shifting focus to the binder that follows.
Would you kindly share the measured % double-positive cells vs WT for Clone C VNAR-hFc fusion (Fc fusion, not shown: a dimerising Fc or GST, bivalent VNAR-Fc; also called Clone C-hFc) ARVDQTPQTITKETGESLTINCVLRDSNCALSSTYWYRKKSGSTNEENISKGGRYVETVNSGSKSFSLRINDLTVEDSGTYRCNVVQYPSYNNYFWCDVYGDGTAVTVN ?
81%
